System: MS2 coat protein
assay_overview: apparent Kd, MS2 coat protein; higher = weaker binding; RNA-MaP array; FMN 200 µM where present
recorded_conditions: designed as: OFF switch for flavin mononucleotide; no ligand
Kindly supply the reported apparent Kd values for the records listed here.
One number for each entry, in nM.

Reported apparent Kd for UUUGUUUUGCAAGGAUAUGUUUAAUUUUAGUUUCCUUACACAUGAGGAUCACCCAUGUUAUACUUACAGAAGGUGCGUAAUUUU was 126

Notebook: CUAAAUCAUGUAGGAUAUGCAUGGCGAAGCUACGCAGAAGGACAUGAGGAUCACCCAUGUCACUCCGUCUGCGUACAGACGGAG , apparent Kd read as 19.7

The recorded apparent Kd for entry UCCGGGUGCCAGAAGGGAGAUGGUUCGGAGGUCUCAGGAUAUGGCACAUGAGGAUCACCCAUGUGUUUACGUAAUUACAUGAGA equals 20.9

Here is the next item to consider.
The reported value for UUUUAGGGAGGAUAUACAUUUUUUUUAUUAUCCUCAUUAUUACAUGAGGAUCACCCAUGUAGAAGGCCCAUUUU in terms of apparent Kd is 60.7

====

Test system: MS2 coat protein
assay_overview: apparent Kd, MS2 coat protein; higher = weaker binding; RNA-MaP array
recorded_conditions: ligand present: flavin mononucleotide; designed as: ON switch for flavin mononucleotide
For each record, write down the corresponding apparent Kd.
Numbers only, in nM.

Example entries and their recorded answers appear below.
Record GUGCACCGUGAGAAGGCAUAGCACGUGUCGCUGACAUGAGGAUCACCCAUGUGUUGUAAAGUGCAUGAGGAUAUCAGCCAUAGG , field apparent Kd: 10.4

Kindly note the recorded apparent Kd for ACUCGGGGUUGAGGAUAUUCGACUCGAUCUCCACAUGAGGAUCACCCAUGUCAGGACUGACCGGUGAAGAAGGCAACCGUACAU , which is 5.67

Record summary for UUACAAAACCAGAAGGUCUAAAAGAUUAAAUGAGAAGGAUAUGGCUAAACAUGAGGAUCACCCAUGUAGAAAACGAUACGUGAU : reported apparent Kd = 29.9

GET /value?item= GACCCUACGGAGAAGGCACCUACAUGAGGAUCACCCAUGUUUGAUCGUUUGCCGGACGGCUUACGUGAGGAUAUCCAGGUACAG &field=apparent Kd returns 7.2

Documented apparent Kd of AAUACAUGAGGAUCACCCAUGUUGACAUCAUGAGCCAACCUUAGAAGGACUUUAAUGACGCUCGAGUAGGAUAUAAGGCAAGUU : 12

The following sequences each have a reported value; give each one's apparent Kd.
1. GCGACUUUUACCGAGGAUAUGUCGUGACACACAUGAGGAUCACCCAUGUUUCUAAGUCCUGGAAUACAGAAGGCGGUAUUAAUACA
2. CAUAAACCCUAGAAGGGCGCAUUAUGUAGAUUCGCAGGAUAUAGGAACGGGAUCGUGUAUACAACAUGAGGAUCACCCAUGUCA

(A)
5.42
14.4

Batch lookup, apparent Kd per entry.
1. GCAACCCUGCAGAAGGGCGGGUGUACAUGAGGAUCACCCAUGUUAUCAGCAAAGUAGCUGGAUACGCAGGAUAUGCAGUCGAGU
2. AGACAUGAGGAUCACCCAUGUCUCGGGAUGCGUAGCUUGCACAGAAGGCAUGACCGCAACGGUGAUGAGGAUAUGUCGUACCAA

(A)
1. 29.6
2. 8.87

For each of the sequences below, state apparent Kd.
1. GGCGGGAAAUGAGGAUAUGGUAGUUGAGAAACGCCAGAAGGCAUUGGCAAGGCUAGAGACAUGAGGAUCACCCAUGUAAUCAUA
2. UCGGUUCGUGUAGGAUAUACUCGCAAACAGGCAAAAUGCCUACAUGAGGAUCACCCAUGUUAGUGGUAGAAGGACACCUCAACA

(A)
1: 7; 2: 115

Please go through the list and note apparent Kd for each sequence.
1. UCAUGGUCUGGAGAGAGAAUUACAUGAGGAUCACCCAUGUGCAGAAGGAGUUAUCGCACAACAAACUAGGAUAUGCCAAGAAUU
2. GUCGAUUUUAAAUUGACAUGAGGAUCACCCAUGUCUUUAAUCAGAAGGCGGACAACAUUAUGUGCCGAGGAUAUGAUUGGAUCC
3. CAGCCGGCCUAGAAGGUCGAAAUCCAAAUCGUCGAAGGAUAUAGGUCCAGAAAACAAUUACAUGAGGAUCACCCAUGUAUCCUG
4. GAAUAGGAUCAGAAGGAGCUCCAACGGUGACAUGAGGAUCACCCAUGUACUAAACUACAGAAAAGCUAGGAUAUGAAUAAUAGG

(A)
[152, 11.3, 14.2, 25.4]

====

For each record, write down the corresponding apparent Kd.
Test system: MS2 coat protein
assay_overview: apparent Kd, MS2 coat protein; higher = weaker binding; RNA-MaP array; FMN 200 µM where present
recorded_conditions: designed as: OFF switch for flavin mononucleotide; no ligand
One number for each entry, in nM.

Known apparent Kd results, listed for orientation:
The sequence GUCCUCUUGACAUGAGGAUCACCCAUGUAUUAUUUGUUAACUGAGGAUAUACUCUUAUUUUUUAUGUAGAAGGCAGAUUUGUUC showed apparent Kd equal to 40.9

# apparent Kd (sequence: GUAUGCAAGUAGAAGGACGGAUAUUUUGAAAACGUAGGAUAUACAGAAUCAUAUCCACAUGGAUACAUGAGGAUCACCCAUGUA ) is 12

# apparent Kd of CCGUUACAUGAGGAUCACCCAUGUGAGGAUAUCGAUGUGACUGGCAGCGUGCGGGACUCGAGAAGGCACUUGGC = 74.6

// next entry
For this sequence ( AAAAAUGGAGGAUAUACAUGAGGAUCACCCAUGUGUGGCCAUACUAUGUGCUCGUCAGGUAGAAGGCCAAAAAA ), measured apparent Kd is 28.7

====

Tested on: MS2 coat protein
assay_overview: apparent Kd, MS2 coat protein; higher = weaker binding; RNA-MaP array; FMN 200 µM where present
recorded_conditions: designed as: ON switch for flavin mononucleotide; no ligand
endpoint_label: apparent Kd (nM)
Give bare numbers, in nM.

Solved entries:
The measured apparent Kd associated with UGUUGUAUUACAGGAUAUCUAUUGUUUUUAUAUAGAGAAGGGUAUUCACAUGAGGAUCACCCAUGUAUAUACGAGGAAGUUGUG reads 41.1

apparent Kd for UUGGACGUCGUAGGAUAUGUAGGAUAUUCCUACAUGAGGAUCACCCAUGUUGACAUGGAAGAAAGACAGAAGGACGAUGUCCAU is 325

UUCGCUAAGGUGUAGCGAGACUUGCAAGAAGGGUGAAGAACAUGAGGAUCACCCAUGUAAGCCUUACAGGAUAUUGCUUGACGA has a reported apparent Kd of 106

Report apparent Kd for every entry below.
1. UUGGUCAGUCAGAAGGCUACAUUACAUGAGGAUCACCCAUGUCAAAAGUAGAGGAUAUGAAGUUCGCCAUGGUAAGAGCCUGUC
2. GGAGCCGGCACUGAGGAUAUUCAUAUUAAAACAUGAGGAUCACCCAUGUAGGCCAGAAGGCCUUGGGAGAAGGCAGGUCGACUCG

(A)
34.7
406

====

Give apparent Kd for every item shown.
System: MS2 coat protein
assay_overview: apparent Kd, MS2 coat protein; higher = weaker binding; RNA-MaP array; FMN 200 µM where present
recorded_conditions: designed as: OFF switch for flavin mononucleotide; no ligand
Field: value (include unit after the number)

Kindly note the recorded apparent Kd for CAUAACUUUUCUCAUGUAAACAUGAGGAUCACCCAUGUAAUGAGAAGGAGGAGGAAGAGAGAAUCCUAGGAUAUCAGAAUUGUU , which is 6.41 nM

Per the records, this sequence ( CGUGUUAUCGAAGGAUAUGGAUACAUGAGGAUCACCCAUGUAUAUUUUGUGAUCAAGUUUAAGAUCCAGAAGGUCGUAUACACG ) has apparent Kd equal to 54.9 nM

GET /value?item= GGUGGACAUGAGGAUCACCCAUGUGAGGAUAUCGGCCGGCUAGUGGUGGCUGGCUUCUCGAGAAGGCGCAUAGU &field=apparent Kd returns 61.8 nM

Consider the following items and state reported apparent Kd for each.
1. UGUGCCUCGAGAGGAUAUACAUGAGGAUCACCCAUGUAAGUAGAGGUGGAAACACCUCUACAAAUGUAGAAGGCUCGAGGCACA
2. UUAUUAUAUGUAGGAUAUGCAUAUUAUUAUUAUGCAGAAGGACAUGAGGAUCACCCAUGUAUAUUAUUAUUAUAUAUUAUAUAU
3. CCUUGACAUGAGGAUCACCCAUGUGAGGAUAUGAUGCGAUCGUCGAAAGACGAUAGCAUCAGAAGGCACAUAUG
4. GAAGCUCUGCAGCGAUUAGCUACAUGAGGAUCACCCAUGUGGGAGGAUAUACGUCGCUCCGCGGAGUAGAAGGCUUACAUGCGG
5. CGUGCGUCGACAGGAUAUACAGAUUGGCUCCGGUACAUGAGGAUCACCCAUGUAGAAGGGUCACGCGCGGAUAGAACAUUCUAA
6. AAAACUCGAGGAUAUGCAAAAUGAUUGCGAAAGCAAUCAAAACAUGAGGAUCACCCAUGUAGAAGGCGAGAAAA

(A)
["20.6 nM", "30.1 nM", "23.4 nM", "9.86 nM", "9.09 nM", "23.7 nM"]
